TESTED_SYSTEM: Small conductance calcium-activated potassium channel protein 3 (Rattus norvegicus, UniProt P70605)
Sequence (P70605 whole entry): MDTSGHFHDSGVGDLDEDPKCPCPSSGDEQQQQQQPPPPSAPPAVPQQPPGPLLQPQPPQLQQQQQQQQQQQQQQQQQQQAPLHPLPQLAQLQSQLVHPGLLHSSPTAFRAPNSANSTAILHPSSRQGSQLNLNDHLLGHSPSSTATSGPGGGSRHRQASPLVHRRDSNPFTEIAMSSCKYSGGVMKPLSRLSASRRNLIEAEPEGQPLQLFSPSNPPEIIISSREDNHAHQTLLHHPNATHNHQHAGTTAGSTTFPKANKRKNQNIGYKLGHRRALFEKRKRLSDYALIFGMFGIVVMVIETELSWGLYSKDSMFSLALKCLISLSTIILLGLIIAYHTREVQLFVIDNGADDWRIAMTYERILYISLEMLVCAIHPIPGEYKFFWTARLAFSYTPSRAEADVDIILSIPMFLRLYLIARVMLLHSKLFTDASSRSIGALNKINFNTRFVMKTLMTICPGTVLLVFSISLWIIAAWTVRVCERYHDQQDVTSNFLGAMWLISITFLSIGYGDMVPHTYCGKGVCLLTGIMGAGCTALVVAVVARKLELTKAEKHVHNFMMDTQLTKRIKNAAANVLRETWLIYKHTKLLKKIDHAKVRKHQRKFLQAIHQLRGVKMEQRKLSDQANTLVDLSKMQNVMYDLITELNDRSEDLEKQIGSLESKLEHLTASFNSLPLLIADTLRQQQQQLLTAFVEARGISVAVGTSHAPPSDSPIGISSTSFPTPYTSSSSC
EXPERIMENT_NOTES: Inhibition of KCa2.3 in Sprague-Dawley rat superior cervical ganglion neurons assessed as inhibition of afterhyperpolarization by electrophysiological assay
TEST_READOUT: IC50 (nM)
# unit: nM | format: bare number

IC50 reading for `CC1CCNc2cc[n+](c3ccccc23)CCCCC[n+]2ccc(c3ccccc32)NCC1` : 5.9

Record `OC1CCNc2cc[n+](c3ccccc23)CCCCC[n+]2ccc(c3ccccc32)NCC1` . Reported IC50: 3.2

// sample `Cc1ccc2c(c1)c1cc[n+]2Cc2cccc(c2)C[n+]2ccc(c3cc(C)ccc32)NCc2ccc(cc2)CN1` , its IC50 was 19

Recorded IC50 (compound `O=C1CCNc2cc[n+](c3ccccc23)CCCCC[n+]2ccc(c3ccccc32)NCC1` ): 12

IC50 measured on `c1ccc2c(c1)c1cc[n+]2CCCCC[n+]2ccc(c3ccccc32)NCC2CCC(CC2)CN1` = 114

IC50 reported for this compound `Clc1cc(Cl)c2c3cc[n+](c2c1)Cc1cccc(c1)C[n+]1ccc(c2c(Cl)cc(Cl)cc21)NCc1ccc(cc1)CN3` : 24

For this compound ( `c1ccc(CN2CCCCCN(Cc3ccccc3)c3cc[n+](c4ccccc34)CCCCC[n+]3ccc2c2ccccc23)cc1` ), measured IC50 is 123

Reported IC50 of `FC(F)(F)c1ccc2c(c1)c1cc[n+]2CCCCC[n+]2ccc(c3cc(C(F)(F)F)ccc32)NCCCCCN1` : 4

compound `Oc1ccc2c(c1)c1cc[n+]2CCCCC[n+]2ccc(c3cc(O)ccc32)NCCCCCN1` , IC50 observed: 3.9

Recorded IC50 (compound `c1ccc2c(c1)c1cc[n+]2CCCCC[n+]2ccc(c3ccccc32)NCCSCCN1` ): 18

Item: `Fc1ccc2c(c1)c1cc[n+]2Cc2cccc(c2)C[n+]2ccc(c3cc(F)ccc32)NCc2ccc(cc2)CN1` | IC50: 17

Value of IC50 reported for the compound `c1ccc2c(c1)c1cc[n+]2CCCCC[n+]2ccc(c3ccccc32)SCCCCCS1` is 124

In plain terms, `Clc1ccc2c(c1)c1cc[n+]2Cc2cccc(c2)C[n+]2ccc(c3cc(Cl)ccc32)NCc2ccc(cc2)CN1` has a documented IC50 of 21

Documented IC50 of `FC(F)(F)c1ccc2c3cc[n+](c2c1)Cc1cccc(c1)C[n+]1ccc(c2ccc(C(F)(F)F)cc21)NCc1ccc(cc1)CN3` : 76

Query `Clc1ccc2c(c1)c1cc[n+]2CCCCC[n+]2ccc(c3cc(Cl)ccc32)NCCCCCN1` yields IC50 of 3

Given item `c1ccc2c(c1)c1cc[n+]2CCSCC[n+]2ccc(c3ccccc32)NCCOCCN1` , the value recorded as its IC50 is 37

According to the records, this compound `C1#CCNc2cc[n+](c3ccccc23)CCCCC[n+]2ccc(c3ccccc32)NC1` displays IC50 of 14

# IC50 of `C1=C\CNc2cc[n+](c3ccccc23)CCCCC[n+]2ccc(c3ccccc32)NC/1` = 13

----------
Assign EMR to each entry below.
TESTED_SYSTEM: Small conductance calcium-activated potassium channel protein 3 (Rattus norvegicus) (UniProt P70605)
Sequence (P70605 whole entry): as above
EXPERIMENT_NOTES: Inhibition of KCa2.3 in Sprague-Dawley rat superior cervical ganglion neurons assessed as inhibition of afterhyperpolarization by electrophysiological assay relative to UCL1848

Entry `c1ccc2c(c1)c1cc[n+]2CCCCC[n+]2ccc(c3ccccc32)NCCC2(CCN1)OCCO2` , EMR reported as 60

# EMR (molecule: `FC(F)(F)c1ccc2c3cc[n+](c2c1)Cc1cccc(c1)C[n+]1ccc(c2ccc(C(F)(F)F)cc21)NCc1ccc(cc1)CN3` ) is 31

The measured EMR associated with `c1ccc2c(c1)c1cc[n+]2CCOCC[n+]2ccc(c3ccccc32)NCCCCCN1` reads 1.4

Please fill in: EMR reported for `FC(F)(F)c1ccc2c(c1)c1cc[n+]2Cc2cccc(c2)C[n+]2ccc(c3cc(C(F)(F)F)ccc32)NCc2ccc(cc2)CN1` = 11
